This collection of values is drawn from ChEMBL document CHEMBL5149991.

target: Beta-1 adrenergic receptor (Homo sapiens); assay: Displacement of [3H]CGP12177 from human beta-1 adrenergic receptor […] in HEK293T cell membrane incubated for 2 hrs by scintillation counting analysis; type: cell membranes
Sequence (P08588 whole entry): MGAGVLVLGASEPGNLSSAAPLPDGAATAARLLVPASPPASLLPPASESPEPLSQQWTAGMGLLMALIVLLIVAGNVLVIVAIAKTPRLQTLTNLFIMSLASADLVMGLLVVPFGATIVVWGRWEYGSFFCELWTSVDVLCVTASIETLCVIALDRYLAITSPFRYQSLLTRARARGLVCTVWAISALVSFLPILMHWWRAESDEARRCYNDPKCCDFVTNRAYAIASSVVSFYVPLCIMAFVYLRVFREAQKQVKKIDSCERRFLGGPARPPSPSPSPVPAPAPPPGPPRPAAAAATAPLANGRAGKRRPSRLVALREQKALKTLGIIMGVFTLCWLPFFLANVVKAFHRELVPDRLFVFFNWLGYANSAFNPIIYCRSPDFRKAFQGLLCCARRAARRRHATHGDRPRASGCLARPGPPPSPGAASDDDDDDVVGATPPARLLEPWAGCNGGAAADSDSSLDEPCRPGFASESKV
Reported pKi values for a set of compounds
quantity-name: pKi

test_smiles=C[C@@H](NC(=O)/N=C(\N)NCCCc1ncn[nH]1)c1ccccc1 quantity_name=pKi relation_symbol== number=4.31
test_smiles=CCCCCNC(=O)/N=C(\N)NCCCc1nnc(N)s1.O=C(O)C(F)(F)F.O=C(O)C(F)(F)F quantity_name=pKi relation_symbol=< number=4
test_smiles=N/C(=N\C(=O)NCc1ccccc1)NCCCc1nnc(N)s1 quantity_name=pKi relation_symbol=< number=4
test_smiles=CCCCCNC(=O)/N=C(\N)NCCCc1sc(N)nc1C quantity_name=pKi relation_symbol== number=4.66

* * *

target: Histamine H2 receptor (Cavia porcellus) (UniProt P47747); assay: Agonist activity at guinea pig histamine H2 receptor stably transfected in HEK293T cells co-expressing NlucN-mGs/gpH2R-NlucC assessed as maximum efficacy at 100 uM by mini-G protein recruitment assay relative to histamine; type: functional, cell-based
Sequence (P47747 whole entry): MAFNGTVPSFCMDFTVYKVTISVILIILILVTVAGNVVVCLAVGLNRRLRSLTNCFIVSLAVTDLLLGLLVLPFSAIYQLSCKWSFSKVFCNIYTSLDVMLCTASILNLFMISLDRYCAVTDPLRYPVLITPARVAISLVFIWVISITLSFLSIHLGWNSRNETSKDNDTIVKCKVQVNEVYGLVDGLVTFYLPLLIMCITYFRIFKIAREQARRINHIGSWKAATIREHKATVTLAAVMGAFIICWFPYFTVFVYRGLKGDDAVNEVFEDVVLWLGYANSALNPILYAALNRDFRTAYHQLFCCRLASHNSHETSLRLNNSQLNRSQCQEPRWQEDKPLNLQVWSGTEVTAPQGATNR
quantity-name: Emax (%)

compound=CCCCCCNC(=O)/N=C(\N)NCCCc1nnc(N)s1 quantity_name=Emax number=96
compound=C[C@@H](NC(=O)/N=C(\N)NCCCc1nnc(N)s1)c1ccccc1 quantity_name=Emax number=90
compound="CC(NC(=O)/N=C(\\N)NCCCc1nnc(N)s1)c1cccc(F)c1 (centres undefined)" quantity_name=Emax number=93
compound=C[C@@H](NC(=O)/N=C(\N)NCCCc1ncn[nH]1)c1ccccc1 quantity_name=Emax number=86

* * *

target: Histamine H3 receptor (Homo sapiens, UniProt Q9Y5N1); test: Displacement of [3H]UR-PI294 from human histamine H3 receptor stably expressed in baculovirus infected Sf9 cell membrane co-expressing G-alphai2 and G-beta1gamma2 incubated for 60 mins by scintillation counting analysis; format: cell membranes
Sequence (Q9Y5N1 whole entry): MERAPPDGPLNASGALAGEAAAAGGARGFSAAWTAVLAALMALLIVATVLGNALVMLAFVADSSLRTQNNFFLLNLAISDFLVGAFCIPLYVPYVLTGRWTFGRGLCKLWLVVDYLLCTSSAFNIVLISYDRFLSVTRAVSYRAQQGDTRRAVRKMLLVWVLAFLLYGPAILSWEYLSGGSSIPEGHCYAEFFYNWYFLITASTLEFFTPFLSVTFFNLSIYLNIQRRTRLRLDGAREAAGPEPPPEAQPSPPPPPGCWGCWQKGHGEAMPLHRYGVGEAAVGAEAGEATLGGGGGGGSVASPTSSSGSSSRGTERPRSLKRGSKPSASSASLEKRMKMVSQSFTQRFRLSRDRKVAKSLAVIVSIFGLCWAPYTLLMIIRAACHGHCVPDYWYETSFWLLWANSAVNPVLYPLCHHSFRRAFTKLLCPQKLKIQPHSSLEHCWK
quantity-name: Ki (µM)

compound="CC(CNC(=O)/N=C(\\N)NCCCc1nnc(N)s1)C1CCCCC1 (centres undefined)" relation_symbol== number=2.75
compound="Cc1nc(N)sc1-c1cccc(N/C(N)=N/C(=O)NCC(C)CCCc2ccccc2)c1 (centres undefined)" relation_symbol== number=10.7
compound="Cc1ccc(CC(C)CNC(=O)/N=C(\\N)NCCCc2nnc(N)s2)cc1.O=C(O)C(F)(F)F.O=C(O)C(F)(F)F (centres undefined)" relation_symbol== number=2.34
compound=C[C@@H](NC(=O)/N=C(\N)NCCCn1cc(CN(C)C)nn1)c1ccccc1 relation_symbol== number=10.2
compound=Cc1nc(N)sc1-c1cccc(N/C(N)=N/C(=O)NCCCCCCNC(=O)/N=C(\N)Nc2cccc(-c3sc(N)nc3C)c2)c1 relation_symbol== number=0.708
compound=CCCCCNC(=O)/N=C(/N)NCCCc1nnc(C)s1.O=C(O)C(F)(F)F relation_symbol=> number=10
compound=Cc1nnc(CCCN/C(N)=N/C(=O)NCc2ccccc2)s1 relation_symbol=> number=10
compound="Cc1ccc(CC(C)CNC(=O)/N=C(\\N)Nc2ccc(-c3sc(N)nc3C)cc2)cc1 (centres undefined)" relation_symbol== number=8.32
compound="CC(CCCc1ccccc1)CNC(=O)/N=C(\\N)NCCCc1nnc(N)s1 (centres undefined)" relation_symbol== number=3.98

* * *

Please consider the recorded Ki for Histamine H1 receptor (Homo sapiens, UniProt P35367) in what follows.
quantity-name: Ki (µM)

compound=C[C@@H](NC(=O)/N=C(\N)NCCCc1nnc(N)s1)c1ccccc1 target_under_test="Histamine H1 receptor (Homo sapiens, UniProt P35367)" quantity_name=Ki relation_symbol=> number=10
compound=N/C(=N\C(=O)NCc1ccccc1)NCCCc1cnc(N)s1 target_under_test="Histamine H1 receptor (Homo sapiens, UniProt P35367)" quantity_name=Ki relation_symbol== number=5.62
compound="Cc1ccc(CC(C)CNC(=O)/N=C(\\N)Nc2cccc(-c3sc(N)nc3C)c2)cc1 (stereo not given)" target_under_test="Histamine H1 receptor (Homo sapiens, UniProt P35367)" quantity_name=Ki relation_symbol== number=5.25
compound=Cc1nc(N)sc1-c1cccc(N/C(N)=N/C(=O)NCc2ccccc2)c1 target_under_test="Histamine H1 receptor (Homo sapiens, UniProt P35367)" quantity_name=Ki relation_symbol== number=7.24
compound=CCCCCNC(=O)/N=C(\N)NCCCc1nnc(N)s1.O=C(O)C(F)(F)F.O=C(O)C(F)(F)F target_under_test="Histamine H1 receptor (Homo sapiens, UniProt P35367)" quantity_name=Ki relation_symbol== number=6.46
compound=C[C@@H](NC(=O)/N=C(\N)NCCCc1c[nH]cn1)c1ccccc1 target_under_test="Histamine H1 receptor (Homo sapiens, UniProt P35367)" quantity_name=Ki relation_symbol== number=3.98
compound="Cc1ccc(CC(C)CNC(=O)/N=C(\\N)NCC2CCc3nc(N)sc3C2)cc1 (stereo not given)" target_under_test="Histamine H1 receptor (Homo sapiens, UniProt P35367)" quantity_name=Ki relation_symbol== number=0.182
compound=Cc1nc(N)oc1CCCN/C(N)=N/C(=O)NCc1ccccc1 target_under_test="Histamine H1 receptor (Homo sapiens, UniProt P35367)" quantity_name=Ki relation_symbol== number=8.91
compound=CCCCCCNC(=O)/N=C(\N)NCCCc1nnc(N)s1 target_under_test="Histamine H1 receptor (Homo sapiens, UniProt P35367)" quantity_name=Ki relation_symbol== number=5.01
compound=N/C(=N\C(=O)NCCCCCCNC(=O)/N=C(\N)NCCCc1nnc(N)s1)NCCCc1nnc(N)s1 target_under_test="Histamine H1 receptor (Homo sapiens, UniProt P35367)" quantity_name=Ki relation_symbol== number=3.55

* * *

biological target: Histamine H4 receptor (Homo sapiens)
quantity-name: Ki (µM)

compound=NCCCCCCCCNC(=O)/N=C(\N)NCCCc1nnc(N)s1 target_under_test="Histamine H4 receptor (Homo sapiens)" unit_text=µM relation_symbol=> number=10
compound=CCCCCNC(=O)/N=C(\N)Nc1ccc(-c2sc(N)nc2C)cc1.O=C(O)C(F)(F)F.O=C(O)C(F)(F)F target_under_test="Histamine H4 receptor (Homo sapiens)" unit_text=µM relation_symbol== number=7.76
compound=C[C@@H](NC(=O)/N=C(\N)NCCCc1nnc(N)s1)c1ccccc1 target_under_test="Histamine H4 receptor (Homo sapiens)" unit_text=µM relation_symbol=> number=10
compound=Cc1nc(N)sc1-c1cccc(N/C(N)=N/C(=O)NCc2ccccc2)c1 target_under_test="Histamine H4 receptor (Homo sapiens)" unit_text=µM relation_symbol=> number=10
compound="Cc1ccc(CC(C)CNC(=O)/N=C(\\N)NCC2CCc3nc(N)sc3C2)cc1 (stereo not given)" target_under_test="Histamine H4 receptor (Homo sapiens)" unit_text=µM relation_symbol== number=3.39

* * *

molecular target: Mu-type opioid receptor (Homo sapiens); test: Displacement of [3H]diprenorphine from human mu-opioid receptor […] in HEK293T cell membrane incubated for 2 hrs by scintillation counting analysis; format: cell membranes
Sequence (P35372 whole entry): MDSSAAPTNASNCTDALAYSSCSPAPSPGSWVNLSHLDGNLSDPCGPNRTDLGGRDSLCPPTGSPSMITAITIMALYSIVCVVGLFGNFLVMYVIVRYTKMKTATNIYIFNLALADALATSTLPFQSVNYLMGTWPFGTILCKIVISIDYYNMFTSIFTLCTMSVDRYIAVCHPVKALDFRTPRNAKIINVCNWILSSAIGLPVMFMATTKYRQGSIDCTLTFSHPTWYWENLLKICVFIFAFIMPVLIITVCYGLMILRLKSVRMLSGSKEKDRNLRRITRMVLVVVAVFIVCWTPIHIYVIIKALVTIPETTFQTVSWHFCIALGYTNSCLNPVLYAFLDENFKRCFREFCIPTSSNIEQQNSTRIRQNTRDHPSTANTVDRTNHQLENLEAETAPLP
quantity-name: pKi

test_smiles=C[C@@H](NC(=O)/N=C(\N)NCCCc1ncn[nH]1)c1ccccc1 number=4.76
test_smiles=N/C(=N\C(=O)NCc1ccccc1)NCCCc1nnc(N)s1 number=5.4
test_smiles=CCCCCNC(=O)/N=C(\N)NCCCc1sc(N)nc1C number=5.99
test_smiles=CCCCCNC(=O)/N=C(\N)NCCCc1nnc(N)s1.O=C(O)C(F)(F)F.O=C(O)C(F)(F)F number=5.47

* * *

Reported Ki values for a set of molecules
biological target: Histamine H4 receptor (Homo sapiens, UniProt Q9H3N8)
Sequence (Q9H3N8 whole entry): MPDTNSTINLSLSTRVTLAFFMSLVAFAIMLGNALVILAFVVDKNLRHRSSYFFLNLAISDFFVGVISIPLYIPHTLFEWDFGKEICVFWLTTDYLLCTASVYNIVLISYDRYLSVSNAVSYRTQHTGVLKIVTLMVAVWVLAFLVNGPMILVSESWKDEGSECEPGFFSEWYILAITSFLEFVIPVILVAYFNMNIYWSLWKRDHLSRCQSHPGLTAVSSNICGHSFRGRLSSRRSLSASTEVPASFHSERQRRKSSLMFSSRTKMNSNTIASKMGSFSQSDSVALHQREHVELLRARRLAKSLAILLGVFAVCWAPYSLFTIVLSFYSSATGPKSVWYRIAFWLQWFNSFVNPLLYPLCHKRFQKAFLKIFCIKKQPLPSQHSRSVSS
quantity-name: Ki (µM)

molecule="Cc1nc(N)sc1-c1ccc(N/C(N)=N/C(=O)NCC(C)C2CCCCC2)cc1 (stereo not given)" relation_symbol== number=7.76
molecule=CCCCCCNC(=O)/N=C(\N)NCCCc1nnc(N)s1 relation_symbol=> number=10
molecule=CCCCCNC(=O)/N=C(\N)NCCCc1nnc(N)s1.O=C(O)C(F)(F)F.O=C(O)C(F)(F)F relation_symbol=> number=10
molecule=C[C@@H](NC(=O)/N=C(\N)NCCCn1cc(CN(C)C)nn1)c1ccccc1 relation_symbol=> number=10
molecule=N/C(=N\C(=O)NCCCCCCNC(=O)/N=C(\N)NCCCc1nnc(N)s1)NCCCc1nnc(N)s1 relation_symbol=> number=10
molecule="Cc1ccc(CC(C)CNC(=O)/N=C(\\N)NCCCc2nnc(N)o2)cc1 (stereo not given)" relation_symbol=> number=10
molecule="N/C(=N\\C(=O)NCc1ccccc1)NCC1CCc2nc(N)sc2C1 (stereo not given)" relation_symbol== number=5.89
molecule="CCCCCNC(=O)/N=C(\\N)NCC1CCc2nc(N)sc2C1.O=C(O)C(F)(F)F.O=C(O)C(F)(F)F (stereo not given)" relation_symbol== number=5.89
molecule=Cc1nc(N)sc1-c1ccc(N/C(N)=N/C(=O)NCc2ccccc2)cc1 relation_symbol== number=12
molecule="Cc1ccc(CC(C)CNC(=O)/N=C(\\N)NCCCc2nnc(N)s2)cc1.O=C(O)C(F)(F)F.O=C(O)C(F)(F)F (stereo not given)" relation_symbol== number=6.92
molecule="Cc1nnc(CCCN/C(N)=N/C(=O)NCC(C)C2CCCCC2)s1 (stereo not given)" relation_symbol=> number=10
molecule=Cc1nc(N)sc1-c1ccc(N/C(N)=N/C(=O)NC2CCCCC2)cc1 relation_symbol== number=6.92
molecule="Cc1ccc(CC(C)CNC(=O)/N=C(\\N)Nc2ccc(-c3sc(N)nc3C)cc2)cc1 (stereo not given)" relation_symbol== number=6.31
molecule=CCCCCNC(=O)/N=C(\N)NCCCc1cnc(N)s1.O=C(O)C(F)(F)F.O=C(O)C(F)(F)F relation_symbol=> number=10
molecule=Cc1nc(N)oc1CCCN/C(N)=N/C(=O)NCc1ccccc1 relation_symbol=> number=10
molecule=Cc1nc(N)sc1-c1ccc(N/C(N)=N/C(=O)NCCCCCCNC(=O)/N=C(\N)Nc2ccc(-c3sc(N)nc3C)cc2)cc1 relation_symbol== number=2.14
molecule="CC(CCCc1ccccc1)CNC(=O)/N=C(\\N)NCC1CCc2nc(N)sc2C1 (stereo not given)" relation_symbol== number=4.07
molecule="Cc1nc(N)sc1-c1cccc(N/C(N)=N/C(=O)NCC(C)CCCc2ccccc2)c1 (stereo not given)" relation_symbol== number=7.08
molecule=Cc1nc(N)sc1-c1cccc(N/C(N)=N/C(=O)NCCCCCCNC(=O)/N=C(\N)Nc2cccc(-c3sc(N)nc3C)c2)c1 relation_symbol== number=2.34
molecule="Cc1nc(N)sc1-c1ccc(N/C(N)=N/C(=O)NCC(C)CCCc2ccccc2)cc1 (stereo not given)" relation_symbol== number=6.03
